Quick list: IC50 per entry.
target: 12-lipoxygenase (Rattus norvegicus, UniProt F1LQ70); construct: The pelleted platelets were rinsed twice with a washing buffer; from tissue; host or cells: platelets of Sprague Dawley male rat (sonicate, 100,000 x g supernatant); assay: 12-lipoxygenase inhibition assay (rat platelet enzyme solution); type: biochemical, Sprague Dawley male rat; conditions: Table 2; read-out: 12-Lipoxygenase IC50 values
Sequence (F1LQ70 whole entry): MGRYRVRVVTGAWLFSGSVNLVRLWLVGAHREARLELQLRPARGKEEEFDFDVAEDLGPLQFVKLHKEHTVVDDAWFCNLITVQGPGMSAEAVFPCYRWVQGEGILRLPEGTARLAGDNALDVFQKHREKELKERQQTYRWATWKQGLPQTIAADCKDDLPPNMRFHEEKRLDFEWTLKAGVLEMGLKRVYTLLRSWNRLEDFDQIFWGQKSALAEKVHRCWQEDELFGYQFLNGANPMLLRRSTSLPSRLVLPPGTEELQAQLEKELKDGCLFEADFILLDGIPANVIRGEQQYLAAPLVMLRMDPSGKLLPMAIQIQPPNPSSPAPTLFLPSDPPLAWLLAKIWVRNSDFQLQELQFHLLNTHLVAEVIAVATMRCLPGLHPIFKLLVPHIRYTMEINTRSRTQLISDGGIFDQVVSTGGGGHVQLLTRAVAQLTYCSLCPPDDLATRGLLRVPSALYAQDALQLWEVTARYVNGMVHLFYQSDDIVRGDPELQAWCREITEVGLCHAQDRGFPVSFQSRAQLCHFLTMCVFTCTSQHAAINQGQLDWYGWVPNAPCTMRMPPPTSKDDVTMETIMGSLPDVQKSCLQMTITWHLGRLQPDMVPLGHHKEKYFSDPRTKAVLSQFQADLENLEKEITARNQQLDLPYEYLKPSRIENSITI
I only need the number, in µM, no unit after it.

N#CC(=Cc1ccc(O)c(O)c1)c1ccc(O)c(O)c1 [Comp. Ex. 8, reference compound] | 0.3
N#CC(=Cc1ccc(C(=O)O)cc1)c1ccc(O)c(O)c1 [Comp. Ex. 9, reference compound] | 5
CCOC(=O)C(=Cc1ccc(O)c(O)c1)c1ccccc1 [Comp. Ex. 6, reference compound] | 0.16
Oc1ccc(/C=C/c2ccccc2)cc1O [Comp. Ex. 5, reference compound] | 1.2
N#CC(=Cc1ccc(O)c(O)c1)c1ccc(Cl)cc1 [Ex. 1, α-cyano-4-chloro-3',4'-dihydroxystilbene] | 0.0042

Please examine the following record next.
Prompt: Record request: IC50 value, item N#CC(=Cc1ccc(O)c(O)c1)c1ccc(O)cc1 [Comp. Ex. 7, reference compound]
Response: 0.23

----------
molecular target: 12-lipoxygenase (Rattus norvegicus); construct: The pelleted platelets were rinsed twice with a washing buffer; from tissue; host or cells: platelets of Sprague Dawley male rat (sonicate, 100,000 x g supernatant); assay: 12-lipoxygenase inhibition assay (rat platelet enzyme solution); format: biochemical, Sprague Dawley male rat; conditions: Table 3; read-out: IC50 values of 12-lipoxygenase (mole)
Measurement label: IC50 (nM)
Could you give me the number in nM? Just the number is fine.

Look over these answered cases.
N#CC(=Cc1ccc(O)c(O)c1)c1ccc(Br)s1 | 3.6
N#CC(=Cc1ccccc1)c1ccc(O)c(O)c1 [Ex. 20, α-cyano-3,4-dihydroxystilbene] | 17
N#CC(=Cc1ccc(O)c(O)c1)c1ccccc1 | 15
CCc1ccc(C=C(C#N)c2ccc(O)c(O)c2)cc1 [Ex. 26, α-cyano-4'-ethyl-3,4-dihydroxystilbene] | 4.2

Prompt: Form field: reported IC50 of "N#CC(=Cc1ccc(O)c(O)c1)c1ccc(Br)cc1"
Response: 3.6

Prompt: What value of IC50 has been reported for the following molecule? N#CC(=Cc1ccc(F)cc1)c1ccc(O)c(O)c1 [Ex. 21, α-cyano-4'-fluoro-3,4-dihydroxystilbene]
Response: 4.8

Prompt: Query (molecule): Cc1cccc(C=C(C#N)c2ccc(O)c(O)c2)c1 [Bz. 25, α-cyano-3'-methyl-3,4-dihydroxystilbene] ; field requested: IC50
Response: 7

Prompt: Query: IC50; subject: N#CC(=Cc1ccc(O)c(O)c1)c1ccc(Cl)cc1 [Ex. 1, α-cyano-4-chloro-3',4'-dihydroxystilbene]
Response: 4.2

----------
// values below are reported IC50
target: 5-lipoxygenase (Rattus norvegicus); construct: Cultured cells were collected and washed twice; host or cells: RBL-1 rat basophilic leukemia cells (sonicate, 10,000 x g supernatant); assay: 5-lipoxygenase inhibition assay (rat basophilic leukemia cell RBL-1 enzyme solution); format: biochemical; conditions: Table 3; read-out: IC50 values of 5-lipoxygenase (mole)
Sequence (P12527 whole entry): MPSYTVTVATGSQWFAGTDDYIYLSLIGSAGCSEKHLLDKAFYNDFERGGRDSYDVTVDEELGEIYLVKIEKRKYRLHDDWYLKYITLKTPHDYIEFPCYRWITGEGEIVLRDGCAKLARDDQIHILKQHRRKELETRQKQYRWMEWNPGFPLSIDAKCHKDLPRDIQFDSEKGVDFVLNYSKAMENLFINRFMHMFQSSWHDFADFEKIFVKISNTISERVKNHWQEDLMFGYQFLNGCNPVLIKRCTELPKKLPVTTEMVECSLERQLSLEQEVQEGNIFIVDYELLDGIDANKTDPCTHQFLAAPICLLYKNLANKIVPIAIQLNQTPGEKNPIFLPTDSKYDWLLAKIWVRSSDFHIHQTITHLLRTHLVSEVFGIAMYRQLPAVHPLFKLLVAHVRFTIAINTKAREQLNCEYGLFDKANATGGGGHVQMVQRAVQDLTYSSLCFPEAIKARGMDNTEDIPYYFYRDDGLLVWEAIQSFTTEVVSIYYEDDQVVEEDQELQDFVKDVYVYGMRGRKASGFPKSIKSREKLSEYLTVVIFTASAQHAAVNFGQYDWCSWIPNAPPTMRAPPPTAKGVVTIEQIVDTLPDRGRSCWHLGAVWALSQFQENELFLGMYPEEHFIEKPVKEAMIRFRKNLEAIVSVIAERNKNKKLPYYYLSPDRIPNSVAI
Quick reminder: number only, in nM, skip the unit.

Worked set:
Cc1ccc(C=C(C#N)c2ccc(O)c(O)c2)cc1 [Ex. 24, α-cyano-4'-methyl-3,4-dihydroxystilbene] | 52
N#CC(=Cc1ccc(F)cc1)c1ccc(O)c(O)c1 [Ex. 21, α-cyano-4'-fluoro-3,4-dihydroxystilbene] | 74
N#CC(=Cc1cc(O)c(O)c(O)c1)c1ccc(Cl)cc1 | 56

Prompt: Request: IC50, test system 5-lipoxygenase (Rattus norvegicus), entry N#CC(=Cc1ccc(Cl)cc1)c1ccc(O)c(O)c1 [Ex. 2, α-cyano-4'-chloro-3,4-dihydroxystilbene]
Response: 56

----------
Test: Deacylation by esterases present in the enzyme solution prepared from rat platelets
Type: in vitro ADME
Details: platelet enzyme solution, Reaction time 60 min., 37° C., read-out: conversion (%) from Formula 34b or Formula 35b to Formula 32b
Method: The test was performed to examine whether or not deacylated compounds would be formed due to esterases present in the enzyme solution when the compounds in the third embodiment according to the present invention were treated with the same enzyme solution as in Test Example 4. The enzyme solution was prepared according to the same procedure as described in Test Example 4. One ml of the above mentioned enzyme solution was diluted with 11 ml of a resuspension buffer. […] Calibration: Absorbance of 280 nm
Measurement label: metabolised at 1 h, 10 µM (%)
Hi! Could you send only the number? It should be in %, unit omitted.

CCC(=O)Oc1ccc(C=C(C#N)c2ccc(Cl)cc2)cc1OC(=O)CC [Formula 35b] | 64.6

Prompt: State the recorded metabolised at 1 h, 10 µM for this entry: CC(=O)Oc1ccc(C=C(C#N)c2ccc(Cl)cc2)cc1OC(C)=O [Formula 34b]
Response: 82.8

----------
biological target: 12-lipoxygenase (Rattus norvegicus, UniProt F1LQ70); construct: The pelleted platelets were rinsed twice with a washing buffer; from tissue; host or cells: platelets of Sprague Dawley male rat (sonicate, 100,000 x g supernatant); assay: 12-lipoxygenase inhibition assay (rat platelet enzyme solution); format: biochemical, Sprague Dawley male rat; details: 10^-6 (mole concentration); read-out: 12-Lipoxygenase inhibition ratio (%)
Measurement label: inhibition at 1 µM (%)
Write it as a number; the unit % goes unstated.

N#CC(=Cc1cccc(O)c1)c1ccc(Cl)cc1 [Comp. Ex. 1, reference compound] | 1
COc1cc(C=C(C#N)c2ccc(Cl)cc2)ccc1O [Comp. Ex. 4, reference compound] | 0
N#CC(=Cc1ccc(O)cc1)c1ccc(Cl)cc1 [Comp. Ex. 2, reference compound] | 2

Prompt: Look up inhibition at 1 µM: COc1ccc(C=C(C#N)c2ccc(Cl)cc2)cc1O [Comp. Ex. 3, reference compound]
Response: 1

Prompt: Give the measured inhibition at 1 µM of N#CC(=Cc1ccc(O)c(O)c1)c1ccc(Cl)cc1 [Ex. 1, α-cyano-4-chloro-3',4'-dihydroxystilbene] .
Response: 97
